Attribution: patent US20090291945A1

target: cathepsin K (Homo sapiens); construct: the active enzyme was obtained as the enzyme fraction by using detergent containing lysis buffer; made in house; host or cells: HEK293T (GenHunter Corporation), transient expression; detergent lysate used as enzyme fraction; assay: Cathepsin K inhibitory activity (fluorescent substrate Z-Leu-Arg-MCA); type: biochemical; settings: enzyme expressed in HEK293T; 15 min preincubation, 30 min reaction at room temperature, pH 5.5; read-out: Activity Intensity (cathepsin K inhibitory activity, pIC50 class) (converted)
Sequence (P43235 115-329): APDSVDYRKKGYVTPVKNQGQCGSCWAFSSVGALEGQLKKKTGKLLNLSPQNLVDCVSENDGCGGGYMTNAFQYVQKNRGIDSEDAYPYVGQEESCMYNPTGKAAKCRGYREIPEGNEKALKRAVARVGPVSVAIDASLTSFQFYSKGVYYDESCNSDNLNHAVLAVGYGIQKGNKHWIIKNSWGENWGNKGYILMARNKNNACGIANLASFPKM
Reported metric: IC50

Worked cases, answers included:
Compound	System under test	Reported metric	Result
CC[C@@H](CNc1ccc(OC(C)C(=O)OC)cc1OC)NC(=O)[C@H](CC(C)(C)F)N[C@@H](c1ccccc1)C(F)(F)F (stereo partly drawn)	cathepsin K (Homo sapiens)	IC50	3.16 to 31.6 nM
COc1ccc(NC[C@H](C)NC(=O)[C@H](CC(C)C)N[C@@H](c2ccccc2)C(F)(F)F)c(OC)c1	cathepsin K (Homo sapiens)	IC50	≤ 3.16 nM
CC[C@@H](CNc1ccc(OCC(F)(F)F)cc1)NC(=O)[C@H](CC(C)C)N[C@@H](c1ccccc1)C(F)(F)F	cathepsin K (Homo sapiens)	IC50	31.6 to 10000 nM
CC(C)C[C@H](N[C@@H](c1ccc(=O)[nH]c1)C(F)(F)F)C(=O)N[C@@H](C)CNc1ccc(N2CCOCC2)cc1	cathepsin K (Homo sapiens)	IC50	≤ 3.16 nM
CC[C@@H](CNc1ccc(OC)cc1)NC(=O)[C@H](CC(C)(C)F)N[C@@H](c1ccc(-c2ccc(S(C)(=O)=O)cc2)cc1)C(F)(F)F	cathepsin K (Homo sapiens)	IC50	3.16 to 31.6 nM

// below: IC50 requested for another compound
Q: Request the reported IC50 associated with CC[C@@H](CNc1ccc(N2CCCC2=O)cc1)NC(=O)[C@H](CC(C)C)N[C@@H](c1ccccc1)C(F)(F)F
Result: 3.16 to 31.6 nM
